Values compiled from PubChem BioAssay (NCATS).

ASSAY TEXT: Primary qHTS for inhibitors of nuclear receptor binding SET domain protein 2 (NSD2) in an isogenic RCH-ACV NSD2 p.E1099K mutant (9B) (AID 1645876); also: nearly all actives have a fitted effect of over 70% in size
PARTICULARS: RCH-ACV (leukaemia line) NSD2 E1099K (9B) viability, CellTiter-Glo, 72 h; series mostly up to 44.9 µM
Inconclusive results are not listed. Calls of active or inactive are those of the source. Calls follow the shape of the dose curve; as a rule, active = well fitted inhibition curve with a large enough effect; inconclusive = small, poorly fitted or top-dose-only effect; inactive = flat fitted curve, though single readings scatter.
Hello, when you answer, please use one of the following outcomes: 1 for active, 0 for inactive

Could you check what this test reported for CCOc1ccc(Cc2nccc3cc(OCC)c(OCC)cc23)cc1OCC ? 1

Could you check what this test reported for CC(CCc1ccccc1)NCC(O)c1ccc(O)c(C(N)=O)c1 (stereo not given) ? 0

Could you check what this test reported for COc1ccc(OC)c(C(O)CNC(=O)CN)c1 (stereo not given) ? 0

Could you check what this test reported for Oc1ccc(O)cc1 ? 1

Could you check what this test reported for CCOc1ccc(NC(=O)CC(C)O)cc1 (stereo not given) ? 0

* * *

ASSAY TEXT: Drug repurposing screens with cells derived from glioblastoma tumor samples (AID 1345199); also: % is scaled to controls: 0 for no effect and ±100 for the full control effect; nearly all actives have a fitted effect of over 40% in size
PARTICULARS: GBM patient neurospheres viability, ATP luminescence, 48 h; at 45.9 µM (top of the series); tumour line B
Inconclusive results are not listed.
// activity, negative = cell killing lookup, one value per entry
Kindly provide the numeric value in % only, without the unit symbol.

CC(O)(P(=O)(O)O)P(=O)(O)O : -12.4
O=C(O)c1cc2cc(Cc3cccnc3)ccc2o1 : -16.4
Cc1nc2n(c(=O)c1CCN1CCC(c3noc4cc(F)ccc34)CC1)CCC[C@H]2O : -11
CCCCN1CCCC1C(=O)Nc1c(C)cc(C)cc1C (stereo unspecified) : -5.63
CCN(CC)CCOC(=O)C(c1ccccc1)C1CCCCC1 (stereo unspecified) : -15
Oc1cc(O)c2c(c1)O[C@H](c1ccc(O)c(O)c1)[C@H](O)C2 : -5.02
CC1(C)CCC(NC(=O)[C@@H](N)CCC(=O)O)CC1 : -9.8
Nc1ccc(/C=C/c2ccc(N)cc2S(=O)(=O)O)c(S(=O)(=O)O)c1 : -7.96

# activity, negative = cell killing (molecule: CCCCC(=O)O[C@]1(C(=O)CO)CC[C@H]2[C@@H]3CCC4=CC(=O)CC[C@]4(C)[C@H]3[C@@H](O)C[C@@]21C ) is -13.9

# activity, negative = cell killing (molecule: CCCCCCCCCCCCCCCCCC(=O)OCC(O)CO (stereo unspecified) ) is -5.26

# activity, negative = cell killing (molecule: CC1(C)O[C@@H]2[C@@H](CO[C@@]3(COS(N)(=O)=O)OC(C)(C)O[C@@H]23)O1 ) is 2.05

# activity, negative = cell killing (molecule: CCC(NC(C)C)C(O)c1ccc(O)c(O)c1 (stereo unspecified) ) is -1.77

# activity, negative = cell killing (molecule: CCN(CC)C(=O)/C(C#N)=C/c1cc(O)c(O)c([N+](=O)[O-])c1 ) is -9.02

* * *

// activity, negative = cell killing lookup, one value per entry
ASSAY TEXT: Drug repurposing screens with cells derived from glioblastoma tumor samples (AID 1345199); also: % is scaled to controls: 0 for no effect and ±100 for the full control effect; nearly all actives have a fitted effect of over 40% in size
PARTICULARS: GBM patient neurospheres viability, ATP luminescence, 48 h; at 46.1 µM (top of the series); tumour line C
Results filed as inconclusive are left out.
Kindly provide the numeric value in % only, without the unit symbol.

CCN1CCCC1=O : 2.13
NC(=O)C(=O)N/N=C/c1ccc([N+](=O)[O-])o1 : 10.3
CC1(C)O[C@@H]2[C@@H](CO[C@@]3(COS(N)(=O)=O)OC(C)(C)O[C@@H]23)O1 : -2.36
N[C@@H](CCC(=O)N[C@@H](CS)C(=O)NCC(=O)O)C(=O)O : 10.6
CC(O)(P(=O)(O)O)P(=O)(O)O : -3.69

# activity, negative = cell killing (compound: CCOC(=O)c1cccc(N)c1 ) is -0.117

# activity, negative = cell killing (compound: CCCSS/C(CCO)=C(\C)N(C=O)Cc1cnc(C)nc1N ) is -24.8

# activity, negative = cell killing (compound: CC(C)=CCC1C(=O)N(c2ccccc2)N(c2ccccc2)C1=O ) is 3.79
